Where do the numbers come from? From ChEMBL document CHEMBL3875169.

- methodNotes: Growth inhibition of human A549 cells after 72 hrs by MTT assay
- Format: functional, cell-based
- experimentalParameters: A549, 72 h
Checkbox rule: IC50 lower than 70 µM = MET; IC50 not lower than 70 µM = NOT MET.

smilesStructure	group
O=c1cc(Cn2cc(CCCCl)nn2)c2ccc(O)cc2o1	MET
O=c1cc(Cn2cc(CCCCO)nn2)c2ccc(O)cc2o1	NOT MET
O=c1cc(Cn2cc(CNS(=O)(=O)c3ccc(F)cc3Cl)nn2)c2ccc(O)cc2o1	NOT MET
Cc1ccc2nc(-c3ccc(NCc4cn(Cc5cc(=O)oc6cc(O)ccc56)nn4)cc3)sc2c1	MET
O=c1cc(Cn2cc(CCCO)nn2)c2ccc(O)cc2o1	NOT MET
CC(C)(C)c1cn(Cc2cc(=O)oc3cc(O)ccc23)nn1	MET
O=c1cc(Cn2cc(-c3cc(F)cc(F)c3)nn2)c2ccc(O)cc2o1	MET
